# System: human APJ receptor (Homo sapiens (Human))
# Sequence (P35414 whole entry): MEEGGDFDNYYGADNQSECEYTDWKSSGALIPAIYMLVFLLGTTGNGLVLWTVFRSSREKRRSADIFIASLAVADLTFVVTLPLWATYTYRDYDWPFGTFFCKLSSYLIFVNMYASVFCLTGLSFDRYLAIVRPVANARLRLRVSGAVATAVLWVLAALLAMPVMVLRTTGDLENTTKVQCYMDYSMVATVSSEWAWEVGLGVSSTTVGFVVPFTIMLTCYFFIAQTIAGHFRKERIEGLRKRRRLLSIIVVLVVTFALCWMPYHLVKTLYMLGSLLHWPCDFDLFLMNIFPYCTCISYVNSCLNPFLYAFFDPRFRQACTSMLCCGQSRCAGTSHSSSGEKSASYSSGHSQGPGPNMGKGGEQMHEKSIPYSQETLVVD
# Test Protocol: biochemical
# Type: biochemical
# Experimental Setup: read-out: Activity hAPJ SPA EC50 IP
pEC50: −log10 of the molar value.
Please use 1 whenever pEC50 is not below 8, and -1 whenever it is.

{"columns": ["Compound", "Classification"],
 "data": [
  ["COc1cccc(OC)c1-n1c(NS(=O)(=O)[C@@H](C)[C@@H](C)n2cc(C)cn2)nnc1-c1cncc(C)c1 (single isomer, unassigned) [Example 652.0]", 1],
  ["COc1cccc(-c2nnc(NS(=O)(=O)[C@@H](C)[C@H](OC)c3ncc(C)cn3)n2-c2cc(C)ccc2OC)n1 (atropisomer, axis not shown; (P)) [Example 40.0]", 1],
  ["COc1cccc(OC)c1-n1c(NS(=O)(=O)[C@@H](C)[C@H](OC)c2ncc(-c3cccnc3)cn2)nnc1-c1cncc(C)c1 [Example 752.0]", 1],
  ["COc1cccc(-c2nnc(NS(=O)(=O)C[C@H](O)c3ccc(Cl)cc3)n2-c2c(OC)cccc2OC)n1 (mixture of isomers) [Example 264.0]", 1],
  ["COc1ccc(-n2c(NS(=O)(=O)[C@@H](C)[C@H](OC)c3ncc(C)cn3)nnc2-c2cccc(OC)n2)cc1 [Example 46.0]", -1]
]}

* * *

# System: human APJ receptor (Homo sapiens (Human))
# Test Protocol: biochemical
# Experimental Setup: read-out: Activity hAPJ SPA EC50 IP
Reported log10 EC50 is given for each of the following compounds.
Assay Metric: log10 EC50 (log10 of the value in nM)

{"columns": ["Compound", "System", "Observed Result"],
 "data": [
  ["COc1cccc(OC)c1-n1c(NS(=O)(=O)CCN2C(=O)N(C)CC[C@H]2C)nnc1-c1cncc(C)c1", "human APJ receptor (Homo sapiens (Human))", 0.99],
  ["COc1cccc(-c2nnc(NS(=O)(=O)[C@H](C)Cc3ncc(F)cn3)n2-c2ccccc2OC)n1 (mixture of isomers)", "human APJ receptor (Homo sapiens (Human))", 0.38],
  ["COc1cccc(OC)c1-n1c(NS(=O)(=O)[C@@H](C)[C@H](OC)c2cnc(C)cn2)nnc1-c1ccccn1", "human APJ receptor (Homo sapiens (Human))", 0.94],
  ["COc1cnc([C@@H](C)[C@H](C)S(=O)(=O)Nc2nnc(-c3cccc(OC)n3)n2C2CCOCC2)nc1", "human APJ receptor (Homo sapiens (Human))", 2.15],
  ["CO[C@H](c1ncc(C)cn1)[C@H](C)S(=O)(=O)Nc1nnc(-c2cncc(C)c2)n1-c1c(Cl)cccc1Cl [Example 675.0, 2,2,2-trifluoroacetate]", "human APJ receptor (Homo sapiens (Human))", 0.41],
  ["COc1cccc(OC)c1-n1c(NS(=O)(=O)[C@@H](C)[C@H](OC)c2ncc(C)cn2)nnc1-c1cccc(C)n1", "human APJ receptor (Homo sapiens (Human))", -0.29],
  ["COCCOc1cccc(-c2nnc(NS(=O)(=O)[C@@H](C)[C@H](C)c3ncc(F)cn3)n2-c2c(OC)cccc2OC)n1", "human APJ receptor (Homo sapiens (Human))", -0.19],
  ["COc1ncnc(OC)c1-n1c(NS(=O)(=O)[C@@H](C)[C@H](OC)c2ncc(C)cn2)nnc1-c1cccc(C)n1", "human APJ receptor (Homo sapiens (Human))", 0.38],
  ["COc1cnc([C@@H](OC)[C@H](C)S(=O)(=O)Nc2nnc(-c3cncc(C)c3)n2-c2c(OC)cccc2OC)cn1 (single isomer, unassigned) [Example 311.0]", "human APJ receptor (Homo sapiens (Human))", -0.59],
  ["COc1ncnc(OC)c1-n1c(NS(=O)(=O)[C@@H]2C[C@@H](OC)CN(c3ncc(F)cn3)C2)nnc1-c1cccnc1 (single isomer, unassigned) [Example 812.0]", "human APJ receptor (Homo sapiens (Human))", 2.36],
  ["COc1ncnc(OC)c1-n1c(NS(=O)(=O)[C@@H](C)[C@H](C)c2ncc(C)cn2)nnc1-c1ccccn1", "human APJ receptor (Homo sapiens (Human))", 0.59],
  ["COc1cccc(OC)c1-n1c(NS(=O)(=O)[C@@H](C)[C@H](C)c2ncc(F)cn2)nnc1-c1cccc(-c2ccccc2)n1", "human APJ receptor (Homo sapiens (Human))", 0.69],
  ["CCO[C@@H](c1cnc(C)cn1)[C@@H](C)S(=O)(=O)Nc1nnc(-c2cncc(C)c2)n1-c1c(OC)cccc1OC (single isomer, unassigned) [Example 566.0]", "human APJ receptor (Homo sapiens (Human))", 1.79]
]}

The reported numbers originate from patent US10058550B2.
